Where do the numbers come from? From patent US11117901B2.

target_under_test: hChoKβ FL (Homo sapiens, UniProt Q9Y259)
Construct: hChoKβ full length (FL), corresponding to aminoacids 2-395; GST (N, cleaved yes); PreScission Protease recognition site (N); made in house; host or cells: Escherichia coli BL21pLysS (DE3)
Sequence (Q9Y259 2-395): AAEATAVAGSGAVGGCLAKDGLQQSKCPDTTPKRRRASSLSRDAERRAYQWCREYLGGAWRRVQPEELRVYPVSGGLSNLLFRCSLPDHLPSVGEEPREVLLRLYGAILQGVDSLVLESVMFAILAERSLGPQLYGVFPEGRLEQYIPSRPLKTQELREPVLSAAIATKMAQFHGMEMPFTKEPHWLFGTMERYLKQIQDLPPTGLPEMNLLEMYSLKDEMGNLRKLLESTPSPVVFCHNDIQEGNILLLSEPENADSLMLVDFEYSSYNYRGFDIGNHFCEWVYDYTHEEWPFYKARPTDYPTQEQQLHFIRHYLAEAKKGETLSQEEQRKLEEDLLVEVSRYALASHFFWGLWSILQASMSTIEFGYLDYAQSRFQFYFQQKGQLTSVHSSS
experimental_protocol: Biochemical kinase inhibition assay (Kinase-Glo luminescent) on hChoKβ FL
test_parameters: recombinant hChoKβ FL 30 nM, ATP 5 μM, choline 20 μM, 60 min rt; read-out: ChoKβ IC50
Friendly reminder: IC50 below 2000 nM is T, at or above is F.

[[record]]
chemical_structure = "Cn1nc(C(=O)Nc2cccc(CN3CCC(N4CCCCC4)CC3)c2)c2c1-c1nc(N)ncc1CC2(C)C"
answer_label = "F"

[[record]]
chemical_structure = "CC1(C)Cc2cnc(N)nc2-c2[nH]nc(C(=O)Nc3nccs3)c21"
answer_label = "F"

[[record]]
chemical_structure = "CC1(OCc2csc(NC(=O)c3n[nH]c4c3C(C)(C)Cc3cnc(N)nc3-4)n2)CCN(C2CCCCCC2)CC1"
answer_label = "T"

[[record]]
chemical_structure = "CN1CCC(NC(=O)c2csc(NC(=O)c3n[nH]c4c3C(C)(C)Cc3cnc(N)nc3-4)n2)CC1"
answer_label = "T"

[[record]]
chemical_structure = "CC1(C)Cc2cnc(N)nc2-c2[nH]nc(C(=O)N3CCN(c4ccccc4)CC3)c21"
answer_label = "F"

[[record]]
chemical_structure = "CC1(C)Cc2cnc(N)nc2-c2[nH]nc(C(=O)Nc3nc(COC4CCN(C5CCC(F)(F)CC5)CC4)cs3)c21"
answer_label = "T"

[[record]]
chemical_structure = "CC1(C)Cc2cnc(N)nc2-c2[nH]nc(C(=O)Nc3ccc(C(=O)N4CCC(N5CCC(F)(F)CC5)CC4)cc3)c21"
answer_label = "T"

[[record]]
chemical_structure = "CC1(C)Cc2cnc(N)nc2-c2[nH]nc(C(=O)Nc3ccc(C(=O)Nc4ccc(CN5CCCCC5)cc4)cc3)c21"
answer_label = "T"

